molecular target: Liver X receptor (Homo sapiens, UniProt Q13133+P55055); assay: Transactivation of LXR (unknown origin) expressed in human HeLa cells by ABCA1 LXREx3 reporter assay; format: cell-based
Quick rule for you: EC50 under 40 nM gets Met, anything else gets Not met.

A selection of reference data follows.
| molecule | answer label |
| --- | --- |
| CC(C)(O)c1cc(-c2ccc(-c3cccc(S(C)(=O)=O)c3)s2)n(-c2ccccc2Cl)n1 | Not met |
| CS(=O)(=O)c1cccc(-c2ccc(-c3cc(C(F)(F)F)nn3-c3ccccc3C(F)(F)F)s2)c1 | Met |
| CS(=O)(=O)c1cccc(-c2ccc(-n3cc(C(F)(F)F)nc3-c3ccccc3Cl)cc2)c1 | Met |
| CC(C)(O)c1cn(-c2ccc(-c3cccc(S(C)(=O)=O)c3)cc2)c(Cc2ccccc2Cl)n1 | Met |
| CS(=O)(=O)c1cccc(-c2ccc(-c3cc(C(F)(F)F)nn3-c3ccccc3Cl)s2)c1 | Met |

I wonder whether "N#Cc1c(C(F)(F)F)cc(-c2ccc(Oc3ccccc3)cc2)n(Cc2ccc(F)cc2F)c1=O" has EC50 below 40 nM. Can you tell?
Met

# strict comparison: is reported EC50 < 40 nM? input = "CS(=O)(=O)c1cccc(-c2cccc(-c3cc(C(F)(F)F)nn3-c3ccccc3Cl)c2)c1"
Met

Lab note: confirm whether the reported EC50 for this compound is below 40 nM, equality not counting. compound: "CC(C)(O)c1cn(-c2ccc(-c3cccc(S(C)(=O)=O)c3)cc2)c(-c2c(Cl)cccc2Cl)n1"
Not met

Say whether its EC50 is strictly beneath 40 nM. Entry: "COC(=O)c1cc(-c2ccc(-c3cccc(S(C)(=O)=O)c3)s2)n(-c2ccccc2Cl)n1"
Not met

Lab note: confirm whether the reported EC50 for this compound is below 40 nM, equality not counting. compound: "CC(C)(O)c1cn(-c2ccc(-c3cccc(S(C)(=O)=O)c3)cc2)c(C(C)(C)c2ccccc2Cl)n1"
Met

EC50 strictly < 40 nM for this compound? "CC(C)(O)c1cn(-c2ccc(-c3cccc(S(C)(=O)=O)c3)cc2)c(Cc2ccccc2C(F)(F)F)n1"
Met

Dear colleague, could you confirm whether EC50 of "CC(C)(O)c1cn(-c2ccc(-c3cccc(S(C)(=O)=O)c3)cc2)c(-c2ccccc2Cl)n1" falls below 40 nM? Thanks.
Not met

EC50 under 40 nM? Item: "CS(=O)(=O)c1cccc(-c2ccc(-c3cc(C(F)(F)F)nn3-c3ccccc3Cl)cc2)c1"
Met

---

Target: Oxysterols receptor LXR-alpha (Homo sapiens, UniProt Q13133)
Sequence (Q13133 whole entry): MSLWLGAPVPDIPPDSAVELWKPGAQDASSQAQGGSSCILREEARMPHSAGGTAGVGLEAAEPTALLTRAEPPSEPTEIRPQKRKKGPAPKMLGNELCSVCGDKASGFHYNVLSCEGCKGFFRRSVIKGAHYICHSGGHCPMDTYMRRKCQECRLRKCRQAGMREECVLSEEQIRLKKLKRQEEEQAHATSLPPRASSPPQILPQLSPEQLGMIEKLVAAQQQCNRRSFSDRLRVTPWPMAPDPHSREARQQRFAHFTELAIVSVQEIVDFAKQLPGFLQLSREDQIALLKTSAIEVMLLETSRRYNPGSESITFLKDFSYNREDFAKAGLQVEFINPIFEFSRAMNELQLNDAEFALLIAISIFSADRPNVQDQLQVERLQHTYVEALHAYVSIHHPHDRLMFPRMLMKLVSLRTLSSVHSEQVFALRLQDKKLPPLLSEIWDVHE
Test: Transactivation of LXRalpha (unknown origin) expressed in CV1 cells by luciferase reporter gene assay
Catalogue of pEC50 readings, one per entry.
API: returns pEC50 as number; meaning -log10 of concentration in mol/L.

Some compounds with recorded pEC50:
| molecule | pEC50 |
| --- | --- |
| N#Cc1c(C(F)(F)F)cc(-c2ccc(Oc3ccccc3)cc2)n(Cc2ccc(F)cc2F)c1=O | 7.70 |
| CS(=O)(=O)c1cccc(-c2ccc(-c3cc(C(F)(F)F)nn3Cc3ccc(F)cc3F)s2)c1 | 7.74 |

The reported pEC50 of the compound "CC(C)(O)c1cc(-c2ccc(-c3cccc(S(C)(=O)=O)c3)s2)n(-c2ccccc2Cl)n1" was 6.27

GET /value?item= "CC(C)(O)c1cn(-c2ccc(-c3cccc(S(C)(=O)=O)c3)cc2)c(C(C)(C)c2ccccc2Cl)n1" &field=pEC50 returns 6.64

Reported pEC50 of "CS(=O)(=O)c1cccc(-c2ccc(-n3cc(C(F)(F)F)nc3-c3ccccc3Cl)cc2)c1" : 7.28

Lookup result for "CS(=O)(=O)c1cccc(-c2ccc(-c3cc(C(F)(F)F)nn3-c3ccccc3Cl)cc2)c1" ; measured pEC50: 6.66

compound "COC(=O)c1cc(-c2ccc(-c3cccc(S(C)(=O)=O)c3)s2)n(-c2ccccc2Cl)n1" , pEC50 observed: 7.19
